target: SIG11-pY668; assay: fluorescence polarization
Please assign No whenever Kd is at or above 0.2 µM, and Yes whenever it is below.

Bench note: check whether T8V S10A K15I (designed binder) MKIEEHHHHHHSSGRENLYFQGGAAQPAAPVDSIQAEEWYFGKLGRKDAERQLLSFGNPRGTFLIRESETVKGAYALSIRDWDDMKGDHVKHYIIRKLDNGGYYITTRAQFETLQQLVQHYSERAAGLSSRLVVPSHKGAAA shows Kd below 0.2 µM
Yes

Lab log: compare recorded Kd with 0.2 µM; is it strictly lower for none (wild-type) (other) MKIEEHHHHHHSSGRENLYFQGGAAQPAAPVDSIQAEEWYFGKLGRKDAERQLLSFGNPRGTFLIRESETTKGAYSLSIRDWDDMKGDHVKHYKIRKLDNGGYYITTRAQFETLQQLVQHYSERAAGLSSRLVVPSHKGAAA ?
No

# check: Kd < 0.2 µM for T7S S10A K15L (designed binder) MKIEEHHHHHHSSGRENLYFQGGAAQPAAPVDSIQAEEWYFGKLGRKDAERQLLSFGNPRGTFLIRESESTKGAYALSIRDWDDMKGDHVKHYLIRKLDNGGYYITTRAQFETLQQLVQHYSERAAGLSSRLVVPSHKGAAA
Yes

Given the entry K15L (designed binder) MKIEEHHHHHHSSGRENLYFQGGAAQPAAPVDSIQAEEWYFGKLGRKDAERQLLSFGNPRGTFLIRESETTKGAYSLSIRDWDDMKGDHVKHYLIRKLDNGGYYITTRAQFETLQQLVQHYSERAAGLSSRLVVPSHKGAAA , would its reported Kd be below 0.2 µM?
No

Consider the binder ΔT8 S10A K15L (designed binder) MKIEEHHHHHHSSGRENLYFQGGAAQPAAPVDSIQAEEWYFGKLGRKDAERQLLSFGNPRGTFLIRESETTKGAYSLSIRDWDDMKGDHVKHYKIRKLDNGGYYITTRAQFETLQQLVQHYSERAAGLSSRLVVPSHKGAAA . Is its Kd strictly less than 0.2 µM?
No

Does T8V S10A K15L (designed binder) MKIEEHHHHHHSSGRENLYFQGGAAQPAAPVDSIQAEEWYFGKLGRKDAERQLLSFGNPRGTFLIRESETVKGAYALSIRDWDDMKGDHVKHYLIRKLDNGGYYITTRAQFETLQQLVQHYSERAAGLSSRLVVPSHKGAAA have Kd strictly under 0.2 µM?
Yes

In the record for T8I S10A K15L (designed binder) MKIEEHHHHHHSSGRENLYFQGGAAQPAAPVDSIQAEEWYFGKLGRKDAERQLLSFGNPRGTFLIRESETIKGAYALSIRDWDDMKGDHVKHYLIRKLDNGGYYITTRAQFETLQQLVQHYSERAAGLSSRLVVPSHKGAAA , is Kd less than 0.2 µM?
Yes

# TODO verify Kd < 0.2 µM strictly for this binder: S10V (designed binder) MKIEEHHHHHHSSGRENLYFQGGAAQPAAPVDSIQAEEWYFGKLGRKDAERQLLSFGNPRGTFLIRESETTKGAYVLSIRDWDDMKGDHVKHYKIRKLDNGGYYITTRAQFETLQQLVQHYSERAAGLSSRLVVPSHKGAAA
No

Source of measurements: patent US20190271705A1
